tested on: RARa:RXR (NR concentration 270 nM, RXRa partner concentration 90 nM); assay: PBM binding z-score (relative to random genomic background probes); higher = stronger binding; sequences stand for … in GC…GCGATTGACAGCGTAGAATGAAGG
Would you mind labelling by PBM binding z-score? At or over 0.7 is 1.0, under is 0.0.

INSERT INTO results (construct_sequence, label) VALUES
  ('AATAGAGGGTCACTAGGCCAGAGTAGGTACGAAT', 1.0),
  ('TCTCGGCGGACACGAAAGGTCAGAGCTCGACATC', 1.0),
  ('TCTTTTAGTTGATTAGGGCAACCGAAACAGCGGA', 1.0),
  ('TCTAGTTGGTCAAGGAGGTCACACACGACGGGTA', 1.0),
  ('AGAACGAGGGGAATGAGTTGATAGCACGGGTGGC', 0.0),
  ('GCTGCTAGGTCAGGTTGGTCAGCGAACGGGTACG', 1.0),
  ('AGTCAAAGTTCACTAGGTCACGTAAGATTCAGCT', 1.0),
  ('CCACCAAGGTGAACAAGGTCGTTGATTACTATTC', 1.0),
  ('GCTACAGGGTCAGCTAGAGGCCAGAGTATGGAAA', 1.0),
  ('CGAACAAGGTCAAGGACAGTGAATCTCCGCACGC', 1.0),
  ('CCGACTGGGGCAGAAAGCTTACCATACCATCCGG', 0.0),
  ('AGTCATAGTTCATCTAGGTAACGTAAGATATGCT', 1.0),
  ('AGAGCGAGGGCACGCTGAGTTGATAGCAGAGTAG', 1.0),
  ('TCATATAGGTAAAAGGAGAAAGTCGGTGTGGTAA', 0.0),
  ('ACAGACAGGTGAGCGAAGGTAACTCAGCTGGACG', 0.0),
  ('ATGTCTAGGTAACAAGTTCAGTGAAAGAGAGGAC', 1.0),
  ('ATCTCTAGGTAAAGTTCAGTGACAGATCGATAGA', 1.0),
  ('AGAACGAGGGCACGATGAGTTGATAGCAGAGTAG', 1.0),
  ('AGAACGAGGGCTATGAGTTGATAGCACGGGTGGC', 0.0),
  ('TCAAATAGGTAAAAGGTGAAAGTCGGTGTGGTAA', 1.0),
  ('CCGACTGGGGCAAGGTTACCGTAACGCACAGCCA', 1.0),
  ('TCTCGGAGGACACGAAAGGTCAGAGCTCGACATC', 1.0),
  ('CCGACTGGGGCATAAGGTCACCATAAGCCAGCCC', 1.0),
  ('ATATGTAGGTTAGCTGGGCTCATTCAGACTAGGC', 0.0),
  ('ATACCAAGGTGTTCGTGAGGTCGTTGATACTAAC', 1.0),
  ('AAAACGAGGGCACGCTGAGTTGATAGCAGAGTAG', 1.0);

----------
test system: RXRa homodimer (NR concentration 180 nM); test: PBM binding z-score (relative to random genomic background probes); higher = stronger binding; sequences stand for … in GC…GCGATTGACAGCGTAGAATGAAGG
Would you mind labelling by PBM binding z-score? At or over 3 is Satisfied, under is Not satisfied.

INSERT INTO measurements (construct_sequence, label) VALUES
  ('ACTGGCAGGCCAAGTTTGGGTCACTCAAACAAAG', 'Not satisfied'),
  ('ACAGACATGTGAGTGAAGGTAACTCAGCTGGACG', 'Not satisfied'),
  ('AGCGAAAGGTCGTGAGGTGAGTATACAGAAAGGC', 'Satisfied'),
  ('GGAACGAGGGCATTCGAGTTGATCGCATGGCGAT', 'Not satisfied'),
  ('AGTCAAAGTTCAGGACGAGGTTACGTAAAGCACG', 'Satisfied'),
  ('TCGGGTAGGTTACCAATGGGGCATTCAGCTTTCT', 'Not satisfied'),
  ('AGAATGAGATTAAGATCAGGGAAACAGAATACAT', 'Not satisfied'),
  ('TCTCGAAGGACACGAAAGGTCAGAGCTCGACATC', 'Satisfied'),
  ('ATCTCTAAGTAAAGTTCAGTGAAAGATCGATAGA', 'Not satisfied'),
  ('GCGACTGGGGGATCAGCAGGTTACCATAACTTAA', 'Not satisfied'),
  ('CGTCCACGGTCAAGGTCAGTGAAAGAGACTCGAA', 'Not satisfied'),
  ('AGTCAAAGTTCACTAGTTAACGTAAGATTCAGCT', 'Satisfied'),
  ('TCGAGTAGGTTAGGGGCATTCAGAATGGCGTCGA', 'Not satisfied'),
  ('ATCGAAAGTTCGAAGGTGAGTATACCCACCCGAA', 'Not satisfied'),
  ('TAGCCTAGGTCATGGACCAGTATACCACGCGAAC', 'Satisfied'),
  ('TCTAGCAGGCCAGAGAGTCACTCAAGAGGTACGG', 'Not satisfied'),
  ('CCTCGGAGGACAACAGGAGGTCAGCGCTGCCAGA', 'Not satisfied'),
  ('CGAACTAGGTCATTGACTGGACAGTGAATAGTAA', 'Not satisfied'),
  ('GCTTACGGGTTAAAGGTTATAGCATGAATAGAAT', 'Satisfied'),
  ('GGTGCTAGGTCAACTGATGGTCAGCTAAAGCTCG', 'Not satisfied'),
  ('CCTAGCAGGCCAGGGTCAGTCAAGCATTTCGCTT', 'Not satisfied'),
  ('CCTTACGGGTCCAGGTTATAGCACGGGTGGTACG', 'Not satisfied'),
  ('TTATCAAGGTGAAGGTCGTTGATCCCTCTGTAGA', 'Not satisfied'),
  ('TCTAGTTGGTCAAAGGTCACACATTCGAAATGCG', 'Satisfied'),
  ('TCTTGTAGATCAAGCAGGTAAAGAAAGCCTGAGT', 'Not satisfied');

Source: the supplement of paper PMC6555819
